- Assay Info: chemical genetic growth profiling, strain panel (AID 1159580);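 note: tested at 20 µM; growth read once vehicle control cultures reached saturation at 30 °C; 1 = growth at the plate median or of vehicle wells; lower values mean less growth of the strain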
- Condition: S. cerevisiae deletion strains, growth OD, locus YAL021C, strain ccr4, hits give low values
Screen size: about 5,500 compounds; about 2,000 (36%) were called active. Not shown: some 18% with an inconclusive outcome. The list shows a part of the results.
Entries and their normalized growth
Reply with just the number.

Some entries whose results are on file:
Compound	Parameter Measured	Value Measured
COC1CC(OC2CCC3(C)C(CCC4C3CCC3(C)C(C5=CC(=O)OC5)C(OC(C)=O)CC43O)C2)OC(C)C1O (stereo not drawn)	normalized growth	0.998
COC1C(O)C(O[C@H]2CC[C@]3(C=O)C4C(CC[C@]3(O)C2)[C@@]2(O)CC[C@H](C3=CC(=O)OC3)[C@@]2(C)C[C@H]4OC(C)=O)OC(C)C1OC(C)=O (stereo partly drawn)	normalized growth	0.977

Return reported normalized growth; argument: C[C@@H]1O[C@@H](O[C@H]2CC[C@]3(C=O)C4CC[C@]5(C)[C@@H](C6=CC(=O)OC6)CC[C@]5(O)C4CC[C@]3(O)C2)[C@H](O)[C@H](O)[C@H]1O (stereo partly drawn)
1.02

* * *

- Assay Info: chemical genetic growth profiling, strain panel (AID 1159580);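 note: tested at 20 µM; growth read once vehicle control cultures reached saturation at 30 °C; 1 = growth at the plate median or of vehicle wells; lower values mean less growth of the strain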
- Condition: S. cerevisiae deletion strains, growth OD, locus YLR221C, strain rsa3, hits give low values
About 2,000 (36%) of roughly 5,500 compounds were called active. Inconclusive results (about 18%) are left out. This is one part of the list.
Parameter Measured: normalized growth
Reply with just the number.

Return reported normalized growth; argument: CCCCC(=O)O[C@]1(C(=O)CO)[C@@H](C)CC2C3CCC4=CC(=O)C=C[C@]4(C)[C@@]3(F)C(O)C[C@@]21C (stereo partly drawn)
0.993

Field entry: CCC(=O)OCC(=O)C1(OC(=O)CC)C(C)CC2C3CCC4=CC(=O)C=CC4(C)C3(Cl)C(O)CC21C (stereo not drawn)
1.01

Field entry: Cc1cc(N)c2ccccc2[n+]1CCCCCCCCCC[n+]1c(C)cc(N)c2ccccc21
0.0648

Field entry: CC1(C)S[C@@H]2[C@H](NC(=O)[C@@H](N)c3ccc(O)cc3)C(=O)N2[C@H]1C(=O)O
0.991

Field entry: COc1ccccc1N1CCN(CCCNc2cc(=O)n(C)c(=O)n2C)CC1
1.01

Field entry: COc1ccc(-c2cc(=O)c3c(O)c(OC)c(O[C@H]4O[C@H](CO[C@@H]5O[C@@H](C)[C@H](O)[C@@H](O)[C@H]5O)[C@@H](O)[C@H](O)[C@H]4O)cc3o2)cc1
0.995

Field entry: CCC(=O)OCC(=O)[C@@]1(OC(=O)CC)[C@@H](C)CC2C3CCC4=CC(=O)C=C[C@]4(C)C3(F)[C@@H](O)C[C@@]21C (stereo partly drawn)
1.01

Field entry: Cc1ncc(CO)c(CO)c1O
1

* * *

Entries and their normalized growth
- Assay Info: chemical genetic growth profiling, strain panel (AID 1159580);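 note: tested at 20 µM; growth read once vehicle control cultures reached saturation at 30 °C; 1 = growth at the plate median or of vehicle wells; lower values mean less growth of the strain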
- Condition: S. cerevisiae deletion strains, growth OD, locus YMR263W, strain SAP30, hits give low values
Screen size: about 5,500 compounds; about 2,000 (36%) were called active. Roughly 18% stayed inconclusive and do not appear here. The list shows a part of the results.
Reply with just the number.

Compound	normalized growth
COc1cc([N+](=O)[O-])c(OC)cc1SCC(=O)NNC(=O)c1cc(OC)c(OC)c(OC)c1	0.987
C[C@H]1OC(O[C@H]2[C@@H](O)CC(O[C@H]3[C@@H](O)C[C@H](O[C@H]4CC[C@]5(C)C6CC[C@]7(C)[C@@H](C8=CC(=O)OC8)[C@@H](O)C[C@]7(O)[C@@H]6CC[C@@H]5C4)O[C@@H]3C)O[C@@H]2C)C[C@H](O)C1O (stereo partly specified)	1.01
CC(=O)c1ccccc1OC(=O)c1c(-c2c(Cl)cccc2Cl)noc1C	0.991
CC1CC(=O)Nc2ccccc2N1C(=O)c1ccc([N+](=O)[O-])cc1 (stereo unspecified)	1.05
COC(=O)Cc1cc(OC)c(OC)cc1[N+](=O)[O-]	1

Return reported normalized growth; argument: COc1cccc2c1CCC1=CC(=O)CC[C@@]12C
0.978

Field entry: CNCCC(Oc1ccccc1C)c1ccccc1 (stereo unspecified)
0.982

The measured values listed here are drawn from PubChem BioAssay AID1159580.
